Test system: murine small intestinal IEC-6 cells
Assay: Cytotoxic assay by MTT method
Format: cell-based
Conditions: MTT, 72 h exposure; read-out: CC50, cytotoxicity on IEC-6 cell line

[
  {
    "compound": "O=C1CC(O)(c2ccccc2)C(c2cc(O)cc(=O)o2)c2cccc(O)c21 (stereo not shown)",
    "CC50, µM": 2980
  }
]

---

Assay: Cytotoxic assay by MTT method
Assay type: cell-based, murine
Conditions: murine, IEC-6 small intestinal cells, MTT, 72 h exposure; read-out: CC50, cytotoxicity on IEC-6 cell line
Procedure: The cytotoxicity on murine small intestinal IEC-6 cells were assayed by MTT (3-[4,5-dimethyl thiazol-2-yl]-2,5-diphenyl tetrazolium bromide) method. The IEC-6 cells were cultured in Dulbecco’s modified Eagle’s medium (DMEM) supplemented with 5% fetal bovine serum (FBS) under a humidified atmosphere of 5% CO2 and 95% air at 37 °C. […] After vigorous shaking, absorbance values were measured in a microplate reader (Bio-Rad, USA) at 570 nm. […]
// reported CC50 at 72 h per item

[
  {
    "compound": "O=C1C[C@](O)(c2ccccc2)[C@H](c2cc(O)c(Cc3c(O)cc(-c4c(-c5ccccc5)cc(O)c5c(O)cccc45)oc3=O)c(=O)o2)c2cccc(O)c21",
    "CC50 at 72 h [mM]": 1.32
  },
  {
    "compound": "O=C1C[C@](O)(c2ccccc2)[C@@H](c2cc(O)c(Cc3c(O)cc(-c4c(-c5ccccc5)cc(O)c5c(O)cccc45)oc3=O)c(=O)o2)c2cccc(O)c21",
    "CC50 at 72 h [mM]": 0.28
  },
  {
    "compound": "O=C1CC(O)(c2ccccc2)C(c2cc(O)cc(=O)o2)c2cccc(O)c21 (stereo not shown)",
    "CC50 at 72 h [mM]": 2.75
  },
  {
    "compound": "O=c1cc(O)cc(-c2c(-c3ccccc3)cc(O)c3c(O)cccc23)o1",
    "CC50 at 72 h [mM]": 2.95
  }
]

---

Target: α-glucosidase
Assay: α-Glucosidase inhibitory effect assay with pNPG as substrate
Conditions: 37 °C, 15 min, pH 6.8, read-out: IC50, α-glucosidase inhibition
pIC50: −log10 of the molar value.
parameter: pIC50

[
  {
    "compound": "O=C1CC(O)(c2ccccc2)C(c2cc(O)cc(=O)o2)c2cccc(O)c21 (centres unmarked) [Compound 4, Wailupemycin E]",
    "recorded-number": 3.41
  },
  {
    "compound": "O=C1C[C@](O)(c2ccccc2)[C@H](c2cc(O)c(Cc3c(O)cc(-c4c(-c5ccccc5)cc(O)c5c(O)cccc45)oc3=O)c(=O)o2)c2cccc(O)c21",
    "recorded-number": 5.08
  },
  {
    "compound": "O=c1cc(O)cc(-c2c(-c3ccccc3)cc(O)c3c(O)cccc23)o1",
    "recorded-number": 3.62
  },
  {
    "compound": "O=C1CC(O)(c2ccccc2)C(c2cc(O)cc(=O)o2)c2cccc(O)c21 (centres unmarked) [Compound 3, Wailupemycin D]",
    "recorded-number": 3.00
  },
  {
    "compound": "O=C1C[C@](O)(c2ccccc2)[C@@H](c2cc(O)c(Cc3c(O)cc(-c4c(-c5ccccc5)cc(O)c5c(O)cccc45)oc3=O)c(=O)o2)c2cccc(O)c21",
    "recorded-number": 4.71
  }
]

Where do these numbers come from? They come from paper PMC4731795.
